# Assay target: T1, IL-10R1-Fc (UniProt Q13651 22-235, limits assumed)
# T1 sequence (looked up): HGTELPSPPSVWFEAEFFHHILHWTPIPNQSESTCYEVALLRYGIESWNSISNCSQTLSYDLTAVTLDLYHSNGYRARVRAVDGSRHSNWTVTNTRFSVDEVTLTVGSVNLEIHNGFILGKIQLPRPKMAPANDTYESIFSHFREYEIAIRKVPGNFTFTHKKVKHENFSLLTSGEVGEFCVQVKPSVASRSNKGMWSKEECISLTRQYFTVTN
# Experiment: ELISA, IL-10R1-Fc coated
# maps each entry to its Decreased fold of binding to ligand after Conjugating with S48
Observed property: Decreased fold of binding to ligand after Conjugating with S48 (fold)

[
  {
    "Binder": "IL-10 Asn21Cys-S48 (ligand, human, UniProt P22301 19-178, looked up, S48 on Cys 21, mature) SPGQGTQSENSCTHFPGNLPCMLRDLRDAFSRVKTFFQMKDQLDNLLLKESLLEDFKGYLGCQALSEMIQFYLEEVMPQAENQDPDIKAHVNSLGENLKTLRLRLRRCHRFLPCENKSKAVEQVKNAFNKLQEKGIYKAMSEFDIFINYIEAYMTMKIRN",
    "Assay result": 7
  },
  {
    "Binder": "IL-10 Glu50Cys-S48 (ligand, human, UniProt P22301 19-178, looked up, S48 on Cys 50, mature) SPGQGTQSENSCTHFPGNLPNMLRDLRDAFSRVKTFFQMKDQLDNLLLKCSLLEDFKGYLGCQALSEMIQFYLEEVMPQAENQDPDIKAHVNSLGENLKTLRLRLRRCHRFLPCENKSKAVEQVKNAFNKLQEKGIYKAMSEFDIFINYIEAYMTMKIRN",
    "Assay result": 4
  },
  {
    "Binder": "IL-10 His90Cys-S48 (ligand, human, UniProt P22301 19-178, looked up, S48 on Cys 90, mature) SPGQGTQSENSCTHFPGNLPNMLRDLRDAFSRVKTFFQMKDQLDNLLLKESLLEDFKGYLGCQALSEMIQFYLEEVMPQAENQDPDIKACVNSLGENLKTLRLRLRRCHRFLPCENKSKAVEQVKNAFNKLQEKGIYKAMSEFDIFINYIEAYMTMKIRN",
    "Assay result": 8
  }
]

Origin of values: patent US20230158141A1
